B1: PhoQ; a variant is named by its letters at X, in order, P23837 (parent)
chain: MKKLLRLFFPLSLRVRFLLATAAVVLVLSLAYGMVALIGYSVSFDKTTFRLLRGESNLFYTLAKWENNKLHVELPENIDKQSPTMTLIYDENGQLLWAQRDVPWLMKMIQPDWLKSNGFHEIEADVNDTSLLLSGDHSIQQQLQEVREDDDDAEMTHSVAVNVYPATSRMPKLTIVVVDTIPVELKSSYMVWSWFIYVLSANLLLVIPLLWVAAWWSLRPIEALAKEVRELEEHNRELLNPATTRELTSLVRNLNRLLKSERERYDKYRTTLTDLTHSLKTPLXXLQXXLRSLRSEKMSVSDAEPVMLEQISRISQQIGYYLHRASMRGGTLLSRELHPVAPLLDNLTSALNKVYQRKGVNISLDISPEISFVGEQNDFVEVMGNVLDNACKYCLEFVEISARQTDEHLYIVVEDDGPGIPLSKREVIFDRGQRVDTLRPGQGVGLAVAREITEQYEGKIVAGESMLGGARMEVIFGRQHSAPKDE

Variants of: B1
Experiment: enrichment ratio after two sorts for PhoP signalling (ratio (wild type AVST 3.29)); higher = more functional
Conditions: with PhoP (E. coli)
Whole data set: some 140,000 sequences, median “enrichment ratio after two sorts for PhoP signalling” near 0, cut for the highest 2% near 11. The sample as a whole holds a higher share of the highest values than the screen did.
Result Type: enrichment ratio

• YLDS = ≤ 0.25
• MNNY = 15.3
• FINQ = ≤ 0.25
• SRTT = ≤ 0.25
• MNYY = ≤ 0.25
• HCKA = ≤ 0.25
• NASN = ≤ 0.25
• THSS = 8.94
• EVCW = ≤ 0.25
• KYKH = ≤ 0.25
• MNAQ = 11.8
• QGSN = 20.2
• ESLN = ≤ 0.25
• SQCQ = 3.73
• IKKC = ≤ 0.25
• KPNT = ≤ 0.25
• RGCQ = ≤ 0.25
• DTPM = ≤ 0.25
• FGCI = 7.38
• TQTT = 23.1
• TKTT = 11.6
